Reference source for all entries: patent US20220010021A1

molecular target: human FGFR1c + KLB receptor complex on HEK293 iLite FGF21 reporter cells (human, UniProt P11362 22-822; Q86Z14 1-1044); assay: cell-based or functional assay
Sequence (P11362 22-822, chain 1 of 2): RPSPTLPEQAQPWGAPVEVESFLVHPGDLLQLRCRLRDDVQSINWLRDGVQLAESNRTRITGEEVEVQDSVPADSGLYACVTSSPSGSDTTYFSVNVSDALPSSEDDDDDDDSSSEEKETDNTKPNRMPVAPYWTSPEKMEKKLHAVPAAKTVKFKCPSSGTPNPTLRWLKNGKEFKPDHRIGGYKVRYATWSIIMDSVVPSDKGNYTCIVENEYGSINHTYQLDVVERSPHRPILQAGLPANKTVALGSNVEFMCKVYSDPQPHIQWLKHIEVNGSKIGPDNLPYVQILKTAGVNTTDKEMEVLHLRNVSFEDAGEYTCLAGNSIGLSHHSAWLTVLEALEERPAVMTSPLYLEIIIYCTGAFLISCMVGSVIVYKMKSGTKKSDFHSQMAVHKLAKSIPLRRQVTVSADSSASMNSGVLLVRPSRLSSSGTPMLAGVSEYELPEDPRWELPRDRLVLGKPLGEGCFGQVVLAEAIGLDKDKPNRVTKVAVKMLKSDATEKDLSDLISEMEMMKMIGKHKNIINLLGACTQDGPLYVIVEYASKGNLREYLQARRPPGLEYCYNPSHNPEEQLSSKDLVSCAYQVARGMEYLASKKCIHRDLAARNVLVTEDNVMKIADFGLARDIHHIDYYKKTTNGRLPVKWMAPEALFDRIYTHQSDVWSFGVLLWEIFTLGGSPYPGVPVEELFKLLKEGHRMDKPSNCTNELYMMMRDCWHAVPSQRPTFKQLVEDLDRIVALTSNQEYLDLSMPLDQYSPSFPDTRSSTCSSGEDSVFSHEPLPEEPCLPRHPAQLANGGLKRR
Sequence (Q86Z14 whole entry, chain 2 of 2): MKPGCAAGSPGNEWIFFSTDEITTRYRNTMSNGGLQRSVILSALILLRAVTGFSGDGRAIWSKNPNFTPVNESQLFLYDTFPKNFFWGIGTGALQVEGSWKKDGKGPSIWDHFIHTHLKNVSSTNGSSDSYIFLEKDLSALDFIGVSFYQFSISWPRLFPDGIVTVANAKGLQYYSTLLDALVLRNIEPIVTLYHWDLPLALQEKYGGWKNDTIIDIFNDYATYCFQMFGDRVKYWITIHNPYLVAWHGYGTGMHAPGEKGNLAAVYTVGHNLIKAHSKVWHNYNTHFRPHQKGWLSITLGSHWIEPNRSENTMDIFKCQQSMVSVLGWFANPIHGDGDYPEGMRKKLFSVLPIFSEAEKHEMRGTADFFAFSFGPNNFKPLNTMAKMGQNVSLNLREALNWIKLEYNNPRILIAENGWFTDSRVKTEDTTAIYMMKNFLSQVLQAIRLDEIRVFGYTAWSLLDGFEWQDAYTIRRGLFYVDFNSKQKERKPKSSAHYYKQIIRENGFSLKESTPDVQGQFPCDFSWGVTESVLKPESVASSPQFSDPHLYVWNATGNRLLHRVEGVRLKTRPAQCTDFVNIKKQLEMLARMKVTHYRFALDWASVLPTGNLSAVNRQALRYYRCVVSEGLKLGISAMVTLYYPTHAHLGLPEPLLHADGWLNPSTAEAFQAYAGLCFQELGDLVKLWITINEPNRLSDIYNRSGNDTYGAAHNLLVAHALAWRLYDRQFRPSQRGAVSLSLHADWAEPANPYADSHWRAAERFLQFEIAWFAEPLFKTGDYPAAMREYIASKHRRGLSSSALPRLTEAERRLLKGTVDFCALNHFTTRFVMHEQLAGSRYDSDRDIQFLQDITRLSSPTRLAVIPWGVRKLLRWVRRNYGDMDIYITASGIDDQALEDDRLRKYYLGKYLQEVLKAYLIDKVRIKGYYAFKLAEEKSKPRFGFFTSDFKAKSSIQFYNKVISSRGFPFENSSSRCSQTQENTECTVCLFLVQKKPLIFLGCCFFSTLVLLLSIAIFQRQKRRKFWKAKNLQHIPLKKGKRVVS
Measured Metric: Emax (%)

Binder	Val
Ab0205 (antibody, IgG4, V domains shown, IgG4 PE) VH: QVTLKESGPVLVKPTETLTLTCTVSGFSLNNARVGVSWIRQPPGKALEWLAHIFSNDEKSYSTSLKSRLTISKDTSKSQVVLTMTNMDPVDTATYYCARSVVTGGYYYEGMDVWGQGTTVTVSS VL: SYVLTQPPSVSVAPGQTARITCGGNNIGSESVHWYQQKPGQAPVLVVYDDSDRPSGIPERFSGSNSGNTATLTISRVEAGDEADYYCQVWDGESDHVVFGGGTKLTVLG	2120
Ab0300 (antibody, IgG4, V domains shown) VH: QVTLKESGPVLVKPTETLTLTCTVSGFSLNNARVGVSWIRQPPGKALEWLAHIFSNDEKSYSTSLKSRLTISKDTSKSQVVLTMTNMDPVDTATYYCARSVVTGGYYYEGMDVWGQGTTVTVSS VL: SYVLTQPPSVSVAPGQTARITCGGNNIGSESVHWYQQKPGQAPVLVVYYDSDRPSGIPERFSGSNSGNTATLTISRVEAGDEADYYCQVWTGNSDHVVFGGGTKLTVLG	605
Ab0352 (antibody, IgG4, V domains shown, IgG4 PE) VH: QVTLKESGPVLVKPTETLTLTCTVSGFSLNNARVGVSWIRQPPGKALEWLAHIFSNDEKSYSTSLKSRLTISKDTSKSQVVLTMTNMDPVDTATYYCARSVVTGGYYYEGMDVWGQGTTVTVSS VL: SYVLTQPPSVSVAPGQTARITCGGSNIGSESVHWYQQKPGQAPVLVVYEESDRPSGIPERFSGSNSGNTATLTISRVEAGDEADYYCQVWEGSSDHVVFGGGTKLTVLG	1010
